Give apparent KD of MS2 coat protein for every item shown.
- Tested on: MS2 coat protein
- TEST_PROTOCOL: apparent KD of MS2 coat protein; designed switch direction (-1 OFF switch, 1 ON switch): -1; higher = weaker reporter binding
- STATED_CONDITIONS: Eterna round: R95; input ligand: microRNA oligo, concentration not stated
Report as a plain number; the unit nM is understood.

Which apparent KD of MS2 coat protein value is on record for AAGAAACAUGAGGAUCACCCAUGUGAGGAUAUGACCAAGAAAAGAAAAGAAAGAAGAAUCAGAAGGCACAAAGG [salish99-ex1_r3_051] (puzzle: Exclusion 1) ? 47.2

Now the same for AUCAUGUAAGGAUAUCUUAUAUGGAUCUUCGGAUCAAGUUAAGAGAAGGUACAUGAGGAUCACCCAUGUAUAAC [Ex4-3: 32] (puzzle: Exclusion 4) 24.3

Now the same for GCGCAGUCAGGAUAUGCCGCUGGCGAUCACCGUGGGCAAAGGCAGAAGGGACAUGAGGAUCACCCAUGUGGCGC [e4e Mirror Pins #2] (puzzle: Exclusion 4) 39

Now the same for CUAGUCCGAGGAUAUAUAUUGUGAUACAUGAGGAUCACCCAUGUAAUAAUAUGGAAAUAAAUAGAAGGCGGACUAG [Mat - Exclusion 5 - JL mod - D53] (puzzle: Exclusion 5) 36.8

Now the same for GUUAAGGUAGGAUAUACGAGAAUAUAGGGUAGAUAUAUAACACAUGAGGAUCACCCAUGUAGAAGGACCAAUUG [Mat - Exclusion 2 - Mod of my Tesla design - D57] (puzzle: Exclusion 2) 33.1

###

- Tested on: K4 kissing-loop RNA reporter;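 note: bound reporter read as fluorescence of individual clusters on recovered sequencing chips by microscopy, with normalized cluster intensities fitted with a binding model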
- TEST_PROTOCOL: apparent KD of K4 kissing-loop reporter; higher = weaker reporter binding
- STATED_CONDITIONS: Eterna round: R107; input ligand: none
VALUE_KIND: apparent KD of K4 kissing-loop reporter

Which apparent KD of K4 kissing-loop reporter value is on record for CGGGUACGUCAAGGAUAUAGGCAUGACGUAGUGCAGUGAUGUUGCUCGAGUCUCUUCAACUGAGGACUAGAAGGUGAUCGUAACA [theeternabot_sameState_KL_FMN_B_15] ? 631 nM

Now the same for AAACAUUGGUCUGAUACCAGCUGAUCGGAAACGAUCUUGCUGGAGUGAUGUUCCAAGUAAAGCCCUUGGCAGCAGACCGAUGAAA [MAT - Same State Theophlline B - Mod of Eli - D19] 72.6 nM

Now the same for AGGCCGAGCCAAGGAUAUUGUCAGAGUGAUGUUCGCCAAUACUCCAGCCGCGCCUCAUCAGCUGAGCAAGAAGGUGGUCCUCUCA [theeternabot_exclusion_KL_FMN_B_47] 221 nM

Now the same for ACUGGGUUGACGAAAGUCAACAAAAGAGAAGGAGCGCACGAAAGUGCAGGUAGGUCGCUCAUUCCAGUGAUGUUGGAUCACCAGA [#SwitchBubble 18 #K4Late] 453 nM

Now the same for CUUGGGCUUGCGGCCGCCACUCAAACAUCAUUAAGGAUGGUCCACGGGCAAGUGAUGUUUAUCCGGAGGACCGGGCAUAGCGACA [theeternabot_exclusion_KL_Trp_B_23] 315 nM

Now the same for AACACCCGCUAUGAUACCAGUGAAGUGAUGUUUUACUCCGGGCGUAAGACAAAGGUCAGCCACCCUUGGCAGCAUAUCCGCGUAU [theeternabot_exclusion_KL_Theo_B_35] 594 nM

Now the same for GUACGCUCCCGAGUGAUGUUCGGUAAUCGCGAGGAUAUCGCUUUUGCGAGAAGGCGCGGAAUGAGGAAACUCGUUCUGAGUGUAC [FMN A 25] 253 nM

Now the same for AUUUUCAAUUUAUUAUAUAACUUUUCAGAAGGAGCGUGGAAGUUCACAGGUAGGUCGCUGAAUAUAGGACUAGUGAUGUUAGUUA [JR_Nu_SSArginiA_Sub023] 279 nM

Now the same for UGUACCGAGUCAGGAUAUGUCGUCGAAAGACGAAUCCUAGUGAUGUUAGGGAUCUGCGAAAGCAGUGCAGAAGGGACUUGGUACU [FmnBS 26 U20+G67] 216 nM

Now the same for CGUGAUGUAUGGCGGUUUGUCACUUAGGAUCAGGAUAUAUAAACAAAUAGAAGGGAUGGCGGAGUGAUGUUCCGCCGGCCGCCAU [FMN A Exl V8] 161 nM

Now the same for AGGCACGAGCAAGGAUAUCGAGUAGAGUGAUGUUCUGCCUGGGUUGGCGCGGAAGGGCCUUCCCAGCGAGAAGGUGCUCGUGCCU [#2 Same State - FMN A Attempt #10 (HarryS)] 838 nM
